Entries annotated with measured EC50
- target.system: Peroxisome proliferator-activated receptor alpha (Homo sapiens)
- Sequence (Q07869 whole entry, the tested form may be a part): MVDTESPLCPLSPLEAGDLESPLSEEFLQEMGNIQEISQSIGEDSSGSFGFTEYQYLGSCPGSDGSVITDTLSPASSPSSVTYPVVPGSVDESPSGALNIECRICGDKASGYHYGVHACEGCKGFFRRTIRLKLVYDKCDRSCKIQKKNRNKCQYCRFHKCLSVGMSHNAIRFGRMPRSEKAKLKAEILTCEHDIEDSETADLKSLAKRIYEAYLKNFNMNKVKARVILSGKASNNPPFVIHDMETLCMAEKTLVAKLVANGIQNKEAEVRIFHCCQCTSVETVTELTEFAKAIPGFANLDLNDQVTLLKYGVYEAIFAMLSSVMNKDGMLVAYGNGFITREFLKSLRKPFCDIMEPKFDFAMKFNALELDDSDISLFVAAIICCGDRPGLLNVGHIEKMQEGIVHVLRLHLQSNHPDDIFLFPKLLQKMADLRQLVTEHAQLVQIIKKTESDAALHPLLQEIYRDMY
- assay.explanation: Transactivation of human Gal4-fused PPARalpha LBD expressed in African green monkey COS7 cells after 24 hrs by luciferase reporter gene assay
experimental.endpoint: EC50 (µM)

molecule	units.symbol	experimental.result
CCOC(Cc1ccc(OCCn2c(=O)sc3cc(/C=C/c4cc(OC)cc(OC)c4)ccc32)cc1)C(N)=O (stereo not drawn)	µM	1
CCOC(=O)C(Cc1ccc(OCCn2c(=O)sc3cc(C(=O)/C=C/c4cc(OC)cc(OC)c4)ccc32)cc1)OCC (stereo not drawn)	µM	10
CCOC(=O)C(Cc1ccc(OCCn2c(=O)sc3cc(C(=O)/C=C/c4cc(O)cc(O)c4)ccc32)cc1)OCC (stereo not drawn)	µM	10
COc1cc(/C=C/c2ccc3c(c2)sc(=O)n3CCOc2ccc(CC(OCC(F)(F)F)C(=O)O)cc2)cc(OC)c1 (stereo not drawn)	µM	0.3
CCOC(=O)C(Cc1ccc(OCCn2c(=O)sc3cc(/C=C/c4cc(O)cc(O)c4)ccc32)cc1)OCC (stereo not drawn)	µM	10
CCOC(Cc1ccc(OCCn2c(=O)sc3cc(C(=O)/C=C/c4cc(OC)cc(OC)c4)ccc32)cc1)C(=O)O (stereo not drawn)	µM	10
CCOC(Cc1ccc(OCCn2c(=O)sc3cc(/C=C/c4cc(OC)cc(OC)c4)ccc32)cc1)C(=O)O (stereo not drawn)	µM	1
CCOC(=O)C(Cc1ccc(OCCn2c(=O)sc3cc(C(=O)/C=C/c4cc(O)cc(O)c4)ccc32)cc1)OCC(F)(F)F (stereo not drawn)	µM	10

---

- target.system: NAD-dependent protein deacetylase sirtuin-1 (Homo sapiens) (UniProt Q96EB6)
- Sequence (Q96EB6 whole entry): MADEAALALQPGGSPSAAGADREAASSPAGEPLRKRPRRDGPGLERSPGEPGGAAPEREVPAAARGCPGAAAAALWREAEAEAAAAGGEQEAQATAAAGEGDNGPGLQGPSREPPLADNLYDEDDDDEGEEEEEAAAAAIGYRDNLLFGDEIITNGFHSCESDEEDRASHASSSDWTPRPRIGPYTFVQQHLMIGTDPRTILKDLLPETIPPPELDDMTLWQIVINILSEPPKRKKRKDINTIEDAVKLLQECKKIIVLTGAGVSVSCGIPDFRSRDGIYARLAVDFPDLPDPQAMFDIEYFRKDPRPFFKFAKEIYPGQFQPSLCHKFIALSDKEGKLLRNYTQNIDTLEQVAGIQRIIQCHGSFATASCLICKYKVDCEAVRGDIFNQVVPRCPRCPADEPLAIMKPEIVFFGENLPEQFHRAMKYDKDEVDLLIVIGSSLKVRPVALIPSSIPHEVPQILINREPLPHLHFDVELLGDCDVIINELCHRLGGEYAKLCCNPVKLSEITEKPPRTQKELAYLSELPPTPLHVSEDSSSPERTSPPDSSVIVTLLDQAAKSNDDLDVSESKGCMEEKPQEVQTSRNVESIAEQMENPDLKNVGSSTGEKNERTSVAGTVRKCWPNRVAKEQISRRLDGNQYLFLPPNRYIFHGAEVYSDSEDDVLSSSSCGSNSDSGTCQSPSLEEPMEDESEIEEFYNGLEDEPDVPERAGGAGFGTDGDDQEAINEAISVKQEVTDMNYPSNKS
- assay.explanation: Activation of recombinant human SIRT1 at 10 uM using C-terminal AMC labeled Arg-His-Lys-Lys (Ac) as substrate after 30 mins by FLUOR DE LYS fluorescent assay relative to control
# Activity values compiled below

molecule	Activity / %
COc1cc(/C=C/C(=O)c2ccc3c(c2)sc(=O)n3CCOc2ccc(CC(OCC(F)(F)F)C(=O)O)cc2)cc(OC)c1 (stereo unspecified)	24
CCOC(=O)C(Cc1ccc(OCCn2c(=O)sc3cc(/C=C/c4cc(O)cc(O)c4)ccc32)cc1)OCC(F)(F)F (stereo unspecified)	-28
CCOC(=O)C(Cc1ccc(OCCn2c(=O)sc3cc(/C=C/c4cc(OC)cc(OC)c4)ccc32)cc1)OCC (stereo unspecified)	13
CCOC(=O)C(Cc1ccc(OCCn2c(=O)sc3cc(C(=O)/C=C/c4cc(O)cc(O)c4)ccc32)cc1)OCC(F)(F)F (stereo unspecified)	24
CCOC(=O)C(Cc1ccc(OCCn2c(=O)sc3cc(C(=O)/C=C/c4cc(OC)cc(OC)c4)ccc32)cc1)OCC (stereo unspecified)	2
CCOC(Cc1ccc(OCCn2c(=O)sc3cc(/C=C/c4cc(OC)cc(OC)c4)ccc32)cc1)C(=O)NC (stereo unspecified)	17
COc1cc(/C=C/c2ccc3c(c2)sc(=O)n3CCOc2ccc(CC(OCC(F)(F)F)C(=O)O)cc2)cc(OC)c1 (stereo unspecified)	-4
CCOC(=O)C(Cc1ccc(OCCn2c(=O)sc3cc(/C=C/c4cc(OC)cc(OC)c4)ccc32)cc1)OCC(F)(F)F (stereo unspecified)	-7
CCOC(Cc1ccc(OCCn2c(=O)sc3cc(/C=C/c4cc(O)cc(O)c4)ccc32)cc1)C(=O)O (stereo unspecified)	92
CCOC(=O)C(Cc1ccc(OCCn2c(=O)sc3cc(C(=O)/C=C/c4cc(O)cc(O)c4)ccc32)cc1)OCC (stereo unspecified)	0
CCOC(Cc1ccc(OCCn2c(=O)sc3cc(/C=C/c4cc(OC)cc(OC)c4)ccc32)cc1)C(N)=O (stereo unspecified)	-12
CCOC(=O)C(Cc1ccc(OCCn2c(=O)sc3cc(C(=O)/C=C/c4cc(OC)cc(OC)c4)ccc32)cc1)OCC(F)(F)F (stereo unspecified)	0
O=C(O)C(Cc1ccc(OCCn2c(=O)sc3cc(/C=C/c4cc(O)cc(O)c4)ccc32)cc1)OCC(F)(F)F (stereo unspecified)	128
CN(CCOc1ccc(CC2SC(=O)NC2=O)cc1)c1ccccn1 (stereo unspecified)	5
CCOC(=O)C(Cc1ccc(OCCn2c(=O)sc3cc(/C=C/c4cc(O)cc(O)c4)ccc32)cc1)OCC (stereo unspecified)	59
CCOC(Cc1ccc(OCCn2c(=O)sc3cc(C(=O)/C=C/c4cc(OC)cc(OC)c4)ccc32)cc1)C(=O)O (stereo unspecified)	23

Origin of values: ChEMBL document CHEMBL4138119
